target: RSV F protein of subtype B (18537) on recombinant mKate-RSV (respiratory syncytial virus subtype B …, UniProt P13843 26-574); experiment: cell-based or functional assay
Measured Neut IC50 subtype B, listed per entry for reference.
// return numeric value only (unit: µg/mL, not printed)

{"columns": ["Binder", "Display unit", "Neut IC50 subtype B"],
 "data": [
  ["ADI-18994 (antibody, V domains shown) VH: QVQLVQSGAEVKKPGASVKVSCKASGYTFTNYGFSWVRQAPGQGLEWMGWILTHNGYTNYAQKFQDRVTMKTDTSTSTVYMELRSLRSVDTAVYYCARIGHVTAVAGAPPDYWGQGTLVTVSS VL: QPVLTQPASVSGYQGQSITISCSGTSSDVGTYNLVSWYQQHPGKAPELMIYEGSKRPSGVSDRFSGSKSGNTASLTISGLQAEDEADYYCCSYVAGSTSVFGGGTKLTVL", "µg/mL", 0.108]
]}

Neut IC50 subtype B for ADI-19002 (antibody, V domains shown) VH: EVQLVESGPGLVKPSETLSLTCTVSGGSVSGHYWSWIRQFPGKELEWIGHIYYIGTTNYNPSLKSRVIISLDTSKNQLSLKLSSVTAADTAVYYCARQFGYDKNTLSRLDFDYWGQGTLVTVSS VL: DIQMTQSPSSLSASVRDRVTITCRASQSISSYLNWYQQRPGKAPKLLIYSAFSLHSGVPSRFSGSGSETEFTLTISSLQPDDFATYYCQQSYSIPWTFGQGTKVEIK ?
4.51
